target: MAPK9 (human) (UniProt P45984); assay: radiometric filter-binding kinase assay, Kinase HotSpot; conditions: compound 0.5 µM; ATP 10 µM
Sequence (P45984 whole entry, looked up): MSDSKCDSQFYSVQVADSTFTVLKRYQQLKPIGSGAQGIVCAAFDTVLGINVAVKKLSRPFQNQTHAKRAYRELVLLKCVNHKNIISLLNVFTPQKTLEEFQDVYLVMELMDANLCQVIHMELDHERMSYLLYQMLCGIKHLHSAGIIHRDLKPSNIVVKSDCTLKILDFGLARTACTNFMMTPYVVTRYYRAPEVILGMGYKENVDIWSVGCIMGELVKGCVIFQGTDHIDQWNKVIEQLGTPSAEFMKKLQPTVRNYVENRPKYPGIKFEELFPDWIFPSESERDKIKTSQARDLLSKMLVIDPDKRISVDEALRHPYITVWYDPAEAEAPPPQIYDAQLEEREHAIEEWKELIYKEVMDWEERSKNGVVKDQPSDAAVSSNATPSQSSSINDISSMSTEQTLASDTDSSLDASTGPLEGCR
Below, each of the compounds is paired with its reported residual activity value.
Report as: number unit

// below: answered compounds
# compound, recorded-value
data = [
    ("Cc1ccc(S(=O)(=O)/C=C/C#N)cc1", "102%"),
    ("O=C(Nc1cccc(Nc2nccc(Nc3cccc(C(F)(F)F)c3)n2)c1)C1CC1", "98.7%"),
    ("CO[C@H]1CC2CC[C@@H](C)[C@@](O)(O2)C(=O)C(=O)N2CCCC[C@H]2C(=O)OC([C@H](C)C[C@@H]2CC[C@@H](O)[C@H](OC)C2)CC(=O)[C@H](C)/C=C(\\C)[C@@H](O)[C@@H](OC)C(=O)[C@H](C)C[C@H](C)/C=C/C=C/C=C/1C (stereo partly specified)", "98.4%"),
]

(Q) Report residual activity for `CCCC(=O)Oc1ccc2[nH]c(C(=O)c3cc4ccccc4[nH]3)cc2c1` tested on MAPK9 (human) (UniProt P45984).
(A) 76%

(Q) Report residual activity for `O=C1NC(=O)C(c2cn(CCCn3ccnc3)c3ccccc23)=C1Nc1ccccc1` tested on MAPK9 (human) (UniProt P45984).
(A) 101%

(Q) Report residual activity for `CCN(CC)C(=O)c1ccc(Nc2nc(OCC3CCCCC3)c3nc[nH]c3n2)cc1` tested on MAPK9 (human) (UniProt P45984).
(A) 60.8%

(Q) Report residual activity for `c1ccc(-c2n[nH]cc2-c2ccnc3ccccc23)nc1` tested on MAPK9 (human) (UniProt P45984).
(A) 98.9%

(Q) Report residual activity for `O=c1cc(N2CCOCC2)oc2c1ccc1ccccc12` tested on MAPK9 (human) (UniProt P45984).
(A) 101%

(Q) Report residual activity for `CC[n+]1c(/C=C/N(C)c2ccccc2)n(-c2ccccc2)c2ccc(-c3nc4ccccc4s3)cc21` tested on MAPK9 (human) (UniProt P45984).
(A) 94.6%

(Q) Report residual activity for `Cc1[nH]c(/C=C2\C(=O)Nc3ccc(S(=O)(=O)N(C)c4cccc(Cl)c4)cc32)c(C)c1C(=O)N1CCN(C)CC1` tested on MAPK9 (human) (UniProt P45984).
(A) 78%

(Q) Report residual activity for `CCC(=O)Nc1ccc2ncnc(Nc3cccc(Br)c3)c2c1` tested on MAPK9 (human) (UniProt P45984).
(A) 78.3%

---

target: STK16 (human) (UniProt O75716); assay: radiometric filter-binding kinase assay, Kinase HotSpot; settings: compound 0.5 µM; ATP 10 µM
Sequence (O75716 whole entry, looked up): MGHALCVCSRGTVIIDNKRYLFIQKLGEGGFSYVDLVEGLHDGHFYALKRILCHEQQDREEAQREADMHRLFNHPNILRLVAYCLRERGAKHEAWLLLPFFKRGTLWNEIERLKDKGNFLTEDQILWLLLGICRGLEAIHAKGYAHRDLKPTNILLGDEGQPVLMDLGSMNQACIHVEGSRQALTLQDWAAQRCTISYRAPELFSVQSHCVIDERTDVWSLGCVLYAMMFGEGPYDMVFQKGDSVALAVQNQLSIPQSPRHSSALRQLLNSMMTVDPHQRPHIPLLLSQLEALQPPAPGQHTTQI
readout-kind: residual activity (%)
Express your answer in %, writing the number without its unit.

// below: answered compounds
# compound-string, residual activity (%)
data = [
    ("O=C(Nc1cccc(Nc2nccc(Nc3cccc(C(F)(F)F)c3)n2)c1)C1CC1", 87),
    ("O=C1NC(=O)c2c1c1c3ccccc3n3c1c1c2c2ccccc2n1C1CCC3O1", 58.1),
    ("CNC(=O)c1cc(Oc2ccc(NC(=O)Nc3ccc(Cl)c(C(F)(F)F)c3)cc2)ccn1", 105),
]

(Q) State the recorded residual activity for this entry: `CC(C)N(CCC(=O)c1ccc2ccccc2c1)Cc1ccccc1`
(A) 91.6

(Q) State the recorded residual activity for this entry: `O=C1NC(=O)C(c2cn(CCCn3ccnc3)c3ccccc23)=C1Nc1ccccc1`
(A) 110

Data origin: the kinase profiling compilation of Christmann-Franck et al. (2016)
